- assay.procedure: Urinary excretions of AB-PC after administration of AB-PC rectal suppository (human)
- Type: in vivo
- measurement.parameters: AB-PC 125 mg (potency), added compound 10%, Witepsol H-15, % of dose
Urinary excretions of AB-PC (%) (0-6 hr.): recorded values
quantity.measured: Urinary excretions of AB-PC (%) (0-6 hr.)

molecule: O=C(O)CCCCCCCCCCC(=O)O [Compound 2-Na, 1,10-Decamethylenedicarboxylic acid]
measurement: 25.6
--
molecule: CCCCOc1ccc(C(=O)O)cc1 [Compound 3-Na, p-Butoxybenzoic acid]
measurement: 20.9
--
molecule: CCCCCCCC(=O)OCC [Ethyl caprylate, reference compound]
measurement: 2.9
--
molecule: CC(=O)NCC(=O)[O-].[Na+] [N--Acetylglycine Na, N--Acetylglycine, reference compound]
measurement: 2.5

* * *

- assay.procedure: Urinary excretions of AB-PC after administration of AB-PC rectal suppository (human)
- Format: in vivo
- measurement.parameters: AB-PC 125 mg (potency), Compound (I) 10%, Witepsol H-15, Table 3

chemical.smiles: CCCCCCCCCCCCCC(=O)N[C@H](C(=O)O)[C@@H](C)O
Urinary excretions (%) 4-6 (hr.): 0.9
--
chemical.smiles: CCCCCC(=O)N[C@@H](Cc1ccccc1)C(=O)O
Urinary excretions (%) 4-6 (hr.): 1.1
--
chemical.smiles: CCCCCCCCCC(=O)N[C@H](C(=O)O)C(C)C
Urinary excretions (%) 4-6 (hr.): 1.0
--
chemical.smiles: CCCCCCCCCCCCCCCC(=O)N[C@@H](CC(=O)O)C(=O)O
Urinary excretions (%) 4-6 (hr.): 0.7
--
chemical.smiles: CCCCCCCC(=O)N[C@@H](Cc1ccccc1)C(=O)O
Urinary excretions (%) 4-6 (hr.): 1.2

* * *

- assay.procedure: Urinary excretions of AB-PC after administration of AB-PC rectal suppository (human)
- Assay type: in vivo
- measurement.parameters: AB-PC 125 mg (potency), added compound 10%, Witepsol H-15, % of dose
Note to self: use t only for Urinary excretions of AB-PC (%) (0-6 hr.) readings below 6%; a reading exactly at 6% still gets f.

compound: O=C(O)Cc1ccccc1 [Phenylacetic acid Na, Phenylacetic acid, reference compound]
class.name: t
//
compound: O=C(O)c1ccccc1 [Benzoic acid Na, Benzoic acid, reference compound]
class.name: t
//
compound: CC1CCC(C(C)C)C(OCC(=O)O)C1 [Compound 11-Na, L-Menthoxyacetic acid]
class.name: f
//
compound: O=C(O)CCCCCCCCCCCCC(=O)O [Compound 7-Na, 1,12-Dodecamethylene dicarboxylic acid]
class.name: f
//
compound: c1ccc2nc3ccccc3cc2c1 [Acridine, reference compound]
class.name: t
//
compound: O=C(O)CCCCCCCCCC(=O)O [Compound 1-Na, 1,9-Nonamethylendicarboxylic acid]
class.name: f
//
compound: c1ccc2occc2c1 [Benzofurane, reference compound]
class.name: t

* * *

- assay.procedure: Urinary excretions of β-lactam antibiotics after rectal suppository (rabbit)
- Assay type: in vivo
- measurement.parameters: 6059-S 125 mg (potency), Compound (I) 5%, Witepsol H-15
quantity.measured: Urinary excretions (%) Total (0-6 hr.)

compound: CCCC(=O)NC(C(=O)O)c1ccccc1 (racemic) [Compound 29-Na, N--Butyryl-DL-phenylglycine]
measurement: 57.8%
//
compound: O=C(O)CCCCCCCCCCCCC(=O)O [Compound 7-Na, 1,12-Dodecamethylene dicarboxylic acid]
measurement: 52.0%
//
compound: CCCCOc1ccc(C(=O)N[C@@H](Cc2ccccc2)C(=O)O)cc1 [Compound 20-Na, N--(4-Butoxybenzoyl)phenylalanine]
measurement: 65.3%
//
compound: O=C(N[C@@H](Cc1ccccc1)C(=O)O)c1ccccc1O [Compound 19-Na, N--(2-Hydroxybenzoyl)phenylalanine]
measurement: 61.1%
//
compound: CCCCCCCC(=O)N(C)c1ccc(C(=O)O)cc1 [Compound 18-Na]
measurement: 64.6%

* * *

- assay.procedure: Urinary excretions of β-lactam antibiotics after rectal suppository (rabbit)
- Type: in vivo
- measurement.parameters: 6059-S 125 mg (potency), Compound (I) 5%, Witepsol H-15
Measured Urinary excretions (%) 2-4 hr. accompanies every entry in the list below.

molecule: CCCCCCCC(=O)N(C)c1ccc(C(=O)O)cc1
Urinary excretions (%) 2-4 hr.: 18.8
//
molecule: O=C(N[C@@H](Cc1ccccc1)C(=O)O)c1ccccc1O [Compound 19-Na, N--(2-Hydroxybenzoyl)phenylalanine]
Urinary excretions (%) 2-4 hr.: 20.0
//
molecule: CCCC(=O)NC(C(=O)O)c1ccccc1 (racemic)
Urinary excretions (%) 2-4 hr.: 8.6
//
molecule: CCCCOc1ccc(C(=O)N[C@@H](Cc2ccccc2)C(=O)O)cc1
Urinary excretions (%) 2-4 hr.: 15.2
//
molecule: O=C(O)CCCCCCCCCCCCC(=O)O
Urinary excretions (%) 2-4 hr.: 8.8

* * *

Catalogue of Urinary excretions of AB-PC (%) (0-6 hr.) values
- assay.procedure: Urinary excretions of AB-PC after administration of AB-PC rectal suppository (human)
- Format: in vivo
- measurement.parameters: AB-PC 125 mg (potency), added compound 10%, Witepsol H-15, % of dose
quantity.measured: Urinary excretions of AB-PC (%) (0-6 hr.)

molecule: O=C(O)COc1cccc2ccccc12 [Compound 8-Na, α-Napthoxacetic acid]
measurement: 15.1
--
molecule: CCCCCCCCCC(=O)OCC [Ethyl caprate, reference compound]
measurement: 3.0
--
molecule: CCCCCCOc1ccc(C(=O)O)cc1 [Compound 6-Na, p-Hexyloxybenzoic acid]
measurement: 21.2

* * *

- assay.procedure: Urinary excretions of β-lactam antibiotics after rectal suppository (rabbit)
- Assay type: in vivo
- measurement.parameters: FK-749 125 mg (potency), Compound (I) 5%, Witepsol H-15
Respond with met for Urinary excretions (%) 4-6 hr. values of 2% and above, not met for values below.

molecule: CCCCOc1ccc(C(=O)O)cc1 [Compound 3-Na, p-Butoxybenzoic acid]
class.name: met

molecule: CCCCCCCCNC(=O)c1ccccc1C(=O)O [Compound 14-Na, 2-Carboxy-N--(n-octyl)benzamide]
class.name: not met

molecule: CCCCCCCCCC(=O)N[C@H](C(=O)O)C(C)C [Compound 24-Na, N--Caprinoyl-L-valine]
class.name: met

molecule: CCCCCCCCCCNC(=O)/C=C\C(=O)O [Compound 13-Na, N--(n-Decyl)maleamic acid]
class.name: met

* * *

- assay.procedure: Urinary excretions of AB-PC after administration of AB-PC rectal suppository (human)
- Format: in vivo
- measurement.parameters: AB-PC 125 mg (potency), Compound (I) 10%, Witepsol H-15, Table 3
Recorded measurements of Urinary excretions (%) 2-4 (hr.), one per entry

molecule: CCCCCCCCCCCCCC(=O)N[C@H](C(=O)O)[C@@H](C)O [Compound 26-Na, N--Myristoyl-L-threonine]
Urinary excretions (%) 2-4 (hr.): 3.0%
--
molecule: CCCCCCCCCCCCCCCC(=O)N[C@@H](CC(=O)O)C(=O)O [Compound 27-Na, N--Palmitoyl-L-aspartic acid]
Urinary excretions (%) 2-4 (hr.): 4.1%
--
molecule: CCCCCCCCCC(=O)N[C@H](C(=O)O)C(C)C [Compound 24-Na, N--Caprinoyl-L-valine]
Urinary excretions (%) 2-4 (hr.): 5.1%
--
molecule: CCCCCC(=O)N[C@@H](Cc1ccccc1)C(=O)O [Compound 21-Na, N--Caproyl-L-phenylalanine]
Urinary excretions (%) 2-4 (hr.): 2.0%
--
molecule: CCCCCCCC(=O)N[C@@H](Cc1ccccc1)C(=O)O [Compound 23-Na, N--Capryloyl-L-phenylalanine]
Urinary excretions (%) 2-4 (hr.): 3.0%

* * *

Listed below: Urinary excretions (%) Total (0-6 hr.) values for each entry.
- assay.procedure: Urinary excretions of β-lactam antibiotics after rectal suppository (rabbit)
- Format: in vivo
- measurement.parameters: Cefmetazole 125 mg (potency), Compound (I) 5%, Witepsol H-15
quantity.measured: Urinary excretions (%) Total (0-6 hr.)

chemical.smiles: CCCCN(CCCC)C(=O)CCC(=O)O
quantity.measured: Urinary excretions (%) Total (0-6 hr.)
unit.label: %
measurement: 65.9
--
chemical.smiles: CCCCCCCCCCCC(=O)N[C@H](C(=O)O)C(C)C
quantity.measured: Urinary excretions (%) Total (0-6 hr.)
unit.label: %
measurement: 57.0
--
chemical.smiles: CCCCOc1ccc(C(=O)O)cc1
quantity.measured: Urinary excretions (%) Total (0-6 hr.)
unit.label: %
measurement: 66.5
--
chemical.smiles: CCCCCCCC(=O)Nc1ccc(C(=O)O)cc1
quantity.measured: Urinary excretions (%) Total (0-6 hr.)
unit.label: %
measurement: 64.6
--
chemical.smiles: CCCCCCCCCC(=O)NCCC(=O)O
quantity.measured: Urinary excretions (%) Total (0-6 hr.)
unit.label: %
measurement: 69.1

* * *

- assay.procedure: Urinary excretions of AB-PC after administration of AB-PC rectal suppository (human)
- Type: in vivo
- measurement.parameters: AB-PC 125 mg (potency), added compound 10%, Witepsol H-15, % of dose
Parameter: Urinary excretions of AB-PC (%) (0-6 hr.). Scope: all listed entries.
quantity.measured: Urinary excretions of AB-PC (%) (0-6 hr.)

compound: CCCCc1ccc(C(=O)O)cc1 [Compound 4-Na, p-Butylbenzoic acid]
measurement: 28.6
//
compound: O=C(O)c1ccccc1O [Salicylic acid Na, Salicylic acid, reference compound]
measurement: 9.6
//
compound: CC(=O)O [Acetic acid Na, Acetic acid, reference compound]
measurement: 3.6
//
compound: Nc1ccc(C(=O)O)cc1 [P--Aminobenzoic acid Na, P--Aminobenzoic acid, reference compound]
measurement: 4.9
